The measurements presented in this section are drawn from the METLIN SMRT retention time set (Domingo-Almenara et al. 2019).

method_notes: gradient 5% acetonitrile 3 min, to 50% in 2 min, to 85% in 15 min, held 3 min, 100 µL/min
protocol_conditions: column: Zorbax Extend-C18 2.1 x 50 mm; eluents: water / acetonitrile, 0.1% formic acid
measured_parameter: RP-LC retention time (s)

>>> number("COCCCNC(=O)N1CCN(Cc2nc3cc(C(=O)N(C)C)ccc3n2C)CC1")
560

a. O=c1ccc(N2CCC(NS(=O)(=O)c3cccnc3)C2)nn1CCOc1ccccc1 (centres undefined)
b. CN(C)c1nc(Cl)nc2c1nc(Cl)n2C1CCCCO1 (centres undefined)
Ask: Lab notebook, comparison: a versus b , higher RP-LC retention time goes to which? Answer by stating the label of the chosen item.
Result: b
(b: 1130 s, a: 738 s)

* * *

method_notes: gradient 5% acetonitrile 3 min, to 50% in 2 min, to 85% in 15 min, held 3 min, 100 µL/min
protocol_conditions: column: Zorbax Extend-C18 2.1 x 50 mm; eluents: water / acetonitrile, 0.1% formic acid
measured_parameter: RP-LC retention time (s)

>>> number("O=C([C@@H]1C[C@H](F)CN1S(=O)(=O)c1ccc(F)cc1)N1CCCCC1")
784
>>> number("O=C(NCC(O)c1ccc(C(F)(F)F)cc1)C(c1ccccc1)c1ccccc1 (stereo not given)")
938
>>> number("CCn1cc(-c2nc(CC(=O)Nc3cc(F)ccc3F)cs2)c2cccnc21")
1020
>>> number("COc1ccc(NC(=O)C2CCCN(c3cnc4nccnc4c3)C2)cc1Cl (stereo not given)")
746
>>> number("O=C(Cn1nc2c(N3CCCCCC3)nccn2c1=O)Nc1ccccc1F")
682
>>> number("Cc1ccc(NC(=O)CCc2ccc3nc[nH]c3c2)cc1Cl")
646
>>> number("O=C(CSc1nnc2ccc(-c3cccnc3)nn12)NCc1cccs1")
588
>>> number("Cn1c(C(=O)NCc2cccc(F)c2)cc2ccncc21")
609
>>> number("CC1(C)[C@H]2CC[C@](C)(C2)[C@H]1NS(=O)(=O)c1ccc(F)cc1")
1140
>>> number("COc1ccc(NC(=O)CCc2cccc3[nH]ccc23)c(C)c1")
805

* * *

method_notes: gradient 5% acetonitrile 3 min, to 50% in 2 min, to 85% in 15 min, held 3 min, 100 µL/min
protocol_conditions: column: Zorbax Extend-C18 2.1 x 50 mm; eluents: water / acetonitrile, 0.1% formic acid
measured_parameter: RP-LC retention time (s)

>>> number("Cc1ccc(CNC(=O)C2(C)Cn3nc(C(=O)NCCCN4CCCCCC4)cc3C(=O)N2C)cc1 (centres undefined)")
617
>>> number("COCCn1ccc2nc(C)c(C(=O)NCCc3ccco3)cc2c1=O")
638
>>> number("CN1CCC(N2CCN(S(=O)(=O)c3cc(-c4nc(C(C)(C)C)cs4)cs3)CC2)CC1")
660
>>> number("CCn1nccc1C(=O)NC1CCN(C2=NS(=O)(=O)C(c3ccc(F)cc3)=C2C)CC1")
788
>>> number("CC1(C(=O)NC2CCCC2)CN(S(C)(=O)=O)CC(=O)N1Cc1ccc(Cl)cc1 (centres undefined)")
834
>>> number("Cn1c(=O)sc2cc(S(=O)(=O)N3CCC(C(=O)NC4CCCCCCC4)CC3)ccc21")
931
>>> number("COc1ccc(OC)c2sc(NC(=O)CS(=O)(=O)c3ccc(Cl)cc3)nc12")
854
>>> number("COc1ccc(-c2noc(Cn3ccnc3)n2)cc1")
601
>>> number("O=C(CCn1cnc2cc(-c3noc(-c4ccc5c(c4)OCO5)n3)ccc21)N1CCCC1")
727
